# Target System: FGFR4 (Homo sapiens (Human), UniProt P22455)
# Sequence (P22455 22-802): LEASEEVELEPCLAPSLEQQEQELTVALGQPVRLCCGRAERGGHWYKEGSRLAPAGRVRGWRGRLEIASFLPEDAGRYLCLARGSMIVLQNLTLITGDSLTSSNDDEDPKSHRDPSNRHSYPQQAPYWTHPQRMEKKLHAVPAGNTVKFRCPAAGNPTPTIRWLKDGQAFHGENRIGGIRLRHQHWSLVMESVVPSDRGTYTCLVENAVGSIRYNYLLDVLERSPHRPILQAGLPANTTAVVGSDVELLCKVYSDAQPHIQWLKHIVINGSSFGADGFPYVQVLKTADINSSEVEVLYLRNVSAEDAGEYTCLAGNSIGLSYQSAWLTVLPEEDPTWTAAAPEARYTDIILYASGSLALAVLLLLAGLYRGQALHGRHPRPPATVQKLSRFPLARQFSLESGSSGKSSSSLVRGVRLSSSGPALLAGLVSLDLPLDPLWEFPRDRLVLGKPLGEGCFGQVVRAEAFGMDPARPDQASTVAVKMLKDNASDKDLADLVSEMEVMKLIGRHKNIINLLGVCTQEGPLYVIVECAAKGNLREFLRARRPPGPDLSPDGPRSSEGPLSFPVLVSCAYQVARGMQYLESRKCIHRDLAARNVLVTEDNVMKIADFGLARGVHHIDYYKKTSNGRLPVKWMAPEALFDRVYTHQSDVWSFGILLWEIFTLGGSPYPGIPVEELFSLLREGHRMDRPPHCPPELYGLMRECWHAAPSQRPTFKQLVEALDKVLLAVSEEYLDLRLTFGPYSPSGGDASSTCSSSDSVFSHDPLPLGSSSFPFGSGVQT
# Procedure Text: FGFR Enzymatic Assay (FRET peptide phosphorylation), FGFR4
# Condition Details: IC50 ratio showing FGFR4 selectivity; pre-incubated for 5 to 10 minutes
Measured Parameter: FGFR2/FGFR4 IC50 ratio

Take a look at these entries with their results.
>>> recorded_result("C=CC(=O)N1CCCC(c2cc3c(cn2)CN(c2c(F)c(OC)cc(OC)c2F)C(=O)C32CC2)C1 (centres unmarked)")
">1"
>>> recorded_result("C=CC(=O)Nc1ccc(C)c(-c2cc3c(cn2)CN(c2c(F)c(OC)cc(OC)c2F)C(=O)C32CC2)c1")
">100"
>>> recorded_result("C=CC(=O)Nc1cnc(C)c(-c2cc3c(cn2)CN(c2c(F)c(OC)cc(OC)c2F)C(=O)C32CC2)c1")
">100"
>>> recorded_result("C=CC(=O)Nc1cc(-c2cc3c(cn2)CN(c2c(F)c(OC)cc(OC)c2F)C(=O)C32CC2)cc(N2CCOCC2)c1")
">100"
>>> recorded_result("C=CC(=O)Nc1cc(-c2cc3c(cn2)CN(c2c(F)c(OC)cc(OC)c2F)C(=O)C32CC2)ccc1CN1CCOCC1")
">1"

Q) Fill in the blank: the reported FGFR2/FGFR4 IC50 ratio of C=CC(=O)Nc1cc(CN2CCOCC2)cc(-c2cc3c(cn2)CN(c2c(F)c(OC)cc(OC)c2F)C(=O)C32CC2)c1 is ____.
A) >100

Q) One more molecule: C=CC(=O)Nc1cc(-c2cc3c(cn2)CN(c2c(F)c(OC)cc(OC)c2F)C(=O)C32CC2)c(C)cc1F
A) >100

Q) # repeat for C=CC(=O)Nc1ccc(C#N)c(-c2cc3c(cn2)CN(c2c(F)c(OC)cc(OC)c2F)C(=O)C32CC2)c1
A) >100

---

Items are presented alongside their recorded FGFR2/FGFR4 IC50 ratio.
# Target System: UniProtKB P22455
# Procedure Text: FGFR Enzymatic Assay (FRET peptide phosphorylation), FGFR4
# Condition Details: IC50 ratio showing FGFR4 selectivity; pre-incubated for 4 hours

Example cases with answers are listed next.
>>> recorded_result("C=CC(=O)Nc1cc(-c2cc3c(cn2)CN(c2c(F)c(OC)cc(OC)c2F)C(=O)C32CC2)c(C)cc1F")
">100"
>>> recorded_result("C=CC(=O)Nc1cnn(C[C@H]2CCCO2)c1-c1cc2c(cn1)CN(c1c(F)c(OC)cc(OC)c1F)C(=O)C21CC1")
">100"
>>> recorded_result("C=CC(=O)Nc1cnn(C[C@H]2CCOC2)c1-c1cc2c(cn1)CN(c1c(F)c(OC)cc(OC)c1F)C(=O)C21CC1")
">100"

Q) Value lookup for FGFR2/FGFR4 IC50 ratio; key = C=CC(=O)Nc1cnn(Cc2ccnn2C)c1-c1cc2c(cn1)CN(c1c(F)c(OC)cc(OC)c1F)C(=O)C21CC1
A) >50

Q) Quick one: C=CC(=O)Nc1cn[nH]c1-c1cc2c(cn1)CN(c1c(F)c(OC)cc(OC)c1F)C(=O)C21CC1
A) >100

Q) // same read-out, input: C=CC(=O)Nc1cnn(Cc2ccncc2)c1-c1cc2c(cn1)CN(c1c(F)c(OC)cc(OC)c1F)C(=O)C21CC1
A) >50

Q) Also C=CC(=O)Nc1cn(CC2CCOCC2)nc1-c1cc2c(cn1)CN(c1c(F)c(OC)cc(OC)c1F)C(=O)C21CC1 ?
A) >100

---

Reported IC50 is given for each of the following compounds.
# Target System: FGFR3 (Homo sapiens (Human))
# Sequence (P22607 23-806): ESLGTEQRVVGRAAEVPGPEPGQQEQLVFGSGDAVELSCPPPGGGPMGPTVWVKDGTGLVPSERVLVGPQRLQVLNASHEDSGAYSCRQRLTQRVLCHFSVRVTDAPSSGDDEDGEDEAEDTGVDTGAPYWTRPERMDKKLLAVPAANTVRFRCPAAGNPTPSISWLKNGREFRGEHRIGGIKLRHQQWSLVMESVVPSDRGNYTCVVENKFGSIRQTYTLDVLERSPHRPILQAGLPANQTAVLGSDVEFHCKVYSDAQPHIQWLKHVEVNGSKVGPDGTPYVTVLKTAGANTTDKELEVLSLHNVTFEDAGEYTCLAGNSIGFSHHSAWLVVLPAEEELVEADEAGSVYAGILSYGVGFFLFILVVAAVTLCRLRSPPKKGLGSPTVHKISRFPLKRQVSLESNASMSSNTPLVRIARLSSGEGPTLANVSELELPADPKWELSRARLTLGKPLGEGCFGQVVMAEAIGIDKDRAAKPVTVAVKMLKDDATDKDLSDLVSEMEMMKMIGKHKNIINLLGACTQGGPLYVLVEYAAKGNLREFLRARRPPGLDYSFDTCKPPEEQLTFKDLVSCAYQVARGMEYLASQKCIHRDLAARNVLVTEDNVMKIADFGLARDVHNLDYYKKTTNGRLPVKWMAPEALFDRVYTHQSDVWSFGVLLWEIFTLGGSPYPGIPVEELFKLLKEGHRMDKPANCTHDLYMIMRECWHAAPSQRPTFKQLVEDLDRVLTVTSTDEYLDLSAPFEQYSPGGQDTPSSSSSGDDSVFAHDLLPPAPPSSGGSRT
# Procedure Text: FGFR Enzymatic Assay (FRET peptide phosphorylation), FGFR3
# Condition Details: FGFR3 IC50 (nM), pre-incubated for 5 to 10 minutes

>>> recorded_result("C=CC(=O)N(C)c1cccc(-c2cc3c(cn2)CN(c2c(F)c(OC)cc(OC)c2F)C(=O)C32CC2)c1")
"10 to 30 nM"

Q) Given the compound C=CC(=O)Nc1cncc(-c2cc3c(cn2)CN(c2c(F)c(OC)cc(OC)c2F)C(=O)C32CC2)c1 , what is its reported IC50?
A) 30 to 200 nM

---

# Target System: UniProt:P22607
# Procedure Text: FGFR Enzymatic Assay (FRET peptide phosphorylation), FGFR3
# Condition Details: FGFR3 IC50 (nM), pre-incubated for 4 hours
Measured Parameter: IC50

// solved cases for IC50 follow
>>> recorded_result("C=CC(=O)Nc1cc(-c2cc3c(cn2)CN(c2c(F)c(OC)cc(OC)c2F)C(=O)C32CC2)ccn1")
"10 to 30 nM"
>>> recorded_result("C=CC(=O)Nc1cc(-c2cc3c(cn2)CN(c2c(F)c(OC)cc(OC)c2F)C(=O)C32CC2)ccc1CN1CCOCC1")
"10 to 30 nM"
>>> recorded_result("C=CC(=O)Nc1cncc(-c2cc3c(cn2)CN(c2c(F)c(OC)cc(OC)c2F)C(=O)C32CC2)c1")
"30 to 200 nM"
>>> recorded_result("C=CC(=O)N(C)c1cccc(-c2cc3c(cn2)CN(c2c(F)c(OC)cc(OC)c2F)C(=O)C32CC2)c1")
"10 to 30 nM"
>>> recorded_result("C=CC(=O)Nc1cc(-c2cc3c(cn2)CN(c2c(F)c(OC)cc(OC)c2F)C(=O)C32CC2)ccc1CO")
"30 to 200 nM"

Continue with the next molecule.
Q) API: value(readout= IC50, system= UniProt:P22607, query= C=CC(=O)Nc1cccc(-c2cc3c(cn2)CN(c2c(F)c(OC)cc(OC)c2F)C(=O)C32CC2)c1 )
A) 10 to 30 nM

---

# Target System: FGFR4 (Homo sapiens (Human), UniProt P22455)
# Procedure Text: FGFR Enzymatic Assay (FRET peptide phosphorylation), FGFR4
# Condition Details: IC50 ratio showing FGFR4 selectivity; pre-incubated for 5 to 10 minutes
// values below are reported FGFR3/FGFR4 IC50 ratio

Some solved cases for reference:
>>> recorded_result("C=CC(=O)Nc1cc(CN2CCOCC2)cc(-c2cc3c(cn2)CN(c2c(F)c(OC)cc(OC)c2F)C(=O)C32CC2)c1")
">100"
>>> recorded_result("C=CC(=O)Nc1ccc(C#N)c(-c2cc3c(cn2)CN(c2c(F)c(OC)cc(OC)c2F)C(=O)C32CC2)c1")
">100"
>>> recorded_result("C=CC(=O)Nc1ccc(C)c(-c2cc3c(cn2)CN(c2c(F)c(OC)cc(OC)c2F)C(=O)C32CC2)c1")
">100"

Alright, here's another compound for you.
Q) Any idea what its FGFR3/FGFR4 IC50 ratio is? The compound is C=CC(=O)Nc1cnc(C)c(-c2cc3c(cn2)CN(c2c(F)c(OC)cc(OC)c2F)C(=O)C32CC2)c1
A) >100

---

# Target System: FGFR2 (Homo sapiens (Human), UniProt P21802)
# Sequence (P21802 22-821): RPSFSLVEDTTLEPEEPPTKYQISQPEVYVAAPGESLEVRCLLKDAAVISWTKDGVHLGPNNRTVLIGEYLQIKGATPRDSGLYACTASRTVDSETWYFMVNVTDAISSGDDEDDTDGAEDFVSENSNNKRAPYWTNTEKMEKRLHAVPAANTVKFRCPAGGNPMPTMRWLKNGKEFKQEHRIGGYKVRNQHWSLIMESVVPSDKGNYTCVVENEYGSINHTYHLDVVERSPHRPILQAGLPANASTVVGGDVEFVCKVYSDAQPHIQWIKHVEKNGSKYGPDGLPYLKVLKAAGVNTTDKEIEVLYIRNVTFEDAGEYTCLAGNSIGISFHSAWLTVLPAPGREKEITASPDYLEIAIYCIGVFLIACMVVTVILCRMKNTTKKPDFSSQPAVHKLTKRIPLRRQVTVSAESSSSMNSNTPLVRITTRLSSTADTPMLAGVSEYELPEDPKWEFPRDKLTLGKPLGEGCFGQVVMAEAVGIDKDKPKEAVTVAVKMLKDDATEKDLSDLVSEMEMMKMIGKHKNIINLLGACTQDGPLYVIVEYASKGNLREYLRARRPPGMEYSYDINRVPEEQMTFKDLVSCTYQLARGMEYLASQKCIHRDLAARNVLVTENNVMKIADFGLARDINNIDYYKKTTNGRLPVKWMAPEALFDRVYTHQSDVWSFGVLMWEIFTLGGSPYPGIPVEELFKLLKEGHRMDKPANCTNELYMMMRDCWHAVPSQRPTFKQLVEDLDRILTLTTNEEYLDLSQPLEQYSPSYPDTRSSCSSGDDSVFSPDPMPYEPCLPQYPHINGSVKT
# Procedure Text: FGFR Enzymatic Assay (FRET peptide phosphorylation), FGFR2
Measured Parameter: IC50

Past entries and their recorded results:
>>> recorded_result("C=CC(=O)N(C)c1cccc(-c2cc3c(cn2)CN(c2c(F)c(OC)cc(OC)c2F)C(=O)C32CC2)c1 [Example 9]")
"30 to 200 nM"
>>> recorded_result("C=CC(=O)Nc1cc(-c2cc3c(cn2)CN(c2c(F)c(OC)cc(OC)c2F)C(=O)C32CC2)ccc1CN1CCOCC1 [Example 12]")
"30 to 200 nM"
>>> recorded_result("C=CC(=O)Nc1cncc(-c2cc3c(cn2)CN(c2c(F)c(OC)cc(OC)c2F)C(=O)C32CC2)c1 [Example 3]")
"30 to 200 nM"

Kindly consider the entry below.
Q) // returns reported IC50 for input C=CC(=O)Nc1cc(-c2cc3c(cn2)CN(c2c(F)c(OC)cc(OC)c2F)C(=O)C32CC2)ccc1CO [Example 13]
A) 30 to 200 nM

---

Entries and their measured pIC50 follow.
# Target System: FGFR4 (Homo sapiens (Human), UniProt P22455)
# Procedure Text: FGFR Enzymatic Assay (FRET peptide phosphorylation), FGFR4
pIC50: −log10 of the molar value.

Previously resolved entries follow.
>>> recorded_result("C=CC(=O)Nc1cnn(C[C@@H]2CCOC2)c1-c1cc2c(cn1)CN(c1c(F)c(OC)cc(OC)c1F)C(=O)C21CC1 [Example 28]")
"7.52 to 8.00"
>>> recorded_result("C=CC(=O)Nc1cnn(Cc2ccnn2C)c1-c1cc2c(cn1)CN(c1c(F)c(OC)cc(OC)c1F)C(=O)C21CC1 [Example 26]")
"7.52 to 8.00"

Q) Enter reported pIC50 observed with FGFR4 (Homo sapiens (Human), UniProt P22455) for C=CC(=O)Nc1cnn(CC2CCOCC2)c1-c1cc2c(cn1)CN(c1c(F)c(OC)cc(OC)c1F)C(=O)C21CC1 [Example 24]
A) 7.52 to 8.00

Q) Lookup C=CC(=O)Nc1cnn(CCN2CCOCC2)c1-c1cc2c(cn1)CN(c1c(F)c(OC)cc(OC)c1F)C(=O)C21CC1 [Example 19]
A) 7.52 to 8.00

Q) Further, for C=CC(=O)N1CCCC(c2cc3c(cn2)CN(c2c(F)c(OC)cc(OC)c2F)C(=O)C32CC2)C1 (stereo not drawn) [Example 8] ?
A) 6.70 to 7.52

Q) Item: C=CC(=O)Nc1cnn(C2CCOCC2)c1-c1cc2c(cn1)CN(c1c(F)c(OC)cc(OC)c1F)C(=O)C21CC1 [Example 18]
A) 7.52 to 8.00
